Item-by-item account of IGF-1R/IR ratio comparison
Target: T1, soluble IGF-1R (recombinant human IGF-1R extracellular domain, R&D Systems Cat. # 391-GR/CF) (human, UniProt P08069 31-935)
T1 construct: extracellular domain; LANCE Eu3+-labelled in the TR-FRET assays; also called sIGF-1R; rhIGF-1R
Experiment: phage ELISA
# respond with the number and nothing more

Examples from the recorded data:
[[record]]
binder = "DRDFCRFYERLTALVGGQVDGGWPC [20C-3-F6-IGFR]"
assay_result = 14.1

[[record]]
binder = "GCEVIVEEGDSADPFYHKLSELCQGS [B6Hα-2-D1-IR]"
assay_result = 4.2

[[record]]
binder = "LGVTDGFYAALGYLIHGVGQF [20E2B-3-D11-IGFR]"
assay_result = 7.6

[[record]]
binder = "HLADGQFHEKFYDWFERQISSRCNDC [H2CA-3-E11-IGFR]"
assay_result = 2.2

[[record]]
binder = "CCTTEMVVMDARDDPFYHKLSELVTGG [B6Hα-1-B5-IR]"
assay_result = 20.5


Which IGF-1R/IR ratio comparison value is on record for GNGDGMFYQLLSLLVGRDMHV [20E2B-3-C2-IGFR] ?
13.8

What about this binder? RGIVAMVEATEVGSDHDPFYHKLSELVQGS [B6Hα-2-C7-IR]
6.7

What about this binder? GRTMAVMAAGGPDDPFYHKLSELVQGG [B6Hα-2-D6-IR]
4.4

What about this binder? RGCNDDGGKGWSDDPFYHKLSELICGG [B6Hα-1-A2-IR]
14.6

Source: patent US20070004634A1
